Measured 7-HDHA by item
- Test system: arachidonic acid (AA) cascade
- Assay Name: kidney tissue oxylipin/PG levels in LPS induced sepsis in mice
- Condition Set: kidney tissue 24 h after LPS treatment, LPS +, mean
All answers are understood in nM, so give the number only.

Sample records with 7-HDHA:
* O=c1cc(-c2ccc(O)cc2)oc2cc(O)cc(O)c12 | 3.5
* Oc1ccc(/C=C/c2cc(O)cc(O)c2)cc1 | 2.7

Moving on to the next compound.
Query :: Suppose we examine the compound Oc1ccc(/C=C/c2cc(O)cc3c2[C@@H](c2cc(O)cc(O)c2)[C@H](c2ccc(O)cc2)O3)cc1 ; what 7-HDHA value has been reported?
Result :: 2.7

----------
Measured TXB2 by item
- Tested on: arachidonic acid (AA) cascade
- Assay Name: kidney tissue oxylipin/PG levels in LPS induced sepsis in mice
- Condition Set: kidney tissue 24 h after LPS treatment, LPS +, mean
All answers are understood in nM, so give the number only.

• Cc1ccc(-c2cc(C(F)(F)F)nn2-c2ccc(S(N)(=O)=O)cc2)cc1 [celecoxib, reference compound] = 1.3

Moving on to the next molecule.
Query :: Suppose we examine the molecule O=c1cc(-c2ccc(O)cc2)oc2cc(O)cc(O)c12 [Apigenin, apigenin] ; what TXB2 value has been reported?
Result :: 2.0

----------
Measured 13(14)-EpDPE by item
- System: arachidonic acid (AA) cascade
- Assay Name: kidney tissue oxylipin/PG levels in LPS induced sepsis in mice
- Condition Set: kidney tissue 24 h after LPS treatment, LPS +, mean
Marks after values point to notes of the source that are not given here.

- O=c1cc(-c2ccc(O)cc2)oc2cc(O)cc(O)c12 [Apigenin, apigenin]: 65^† nM
- Cc1ccc(-c2cc(C(F)(F)F)nn2-c2ccc(S(N)(=O)=O)cc2)cc1 [celecoxib, reference compound]: 55^† nM

Query :: Suppose we examine the compound O=c1c(-c2ccc(O)cc2)coc2cc(O)cc(O)c12 [Genistein, genistein] ; what 13(14)-EpDPE value has been reported?
Result :: 56^† nM

----------
Measured 12-HEPE by item
- Test system: arachidonic acid (AA) cascade
- Assay Name: kidney tissue oxylipin/PG levels in LPS induced sepsis in mice
- Condition Set: kidney tissue 24 h after LPS treatment, LPS +, mean
All answers are understood in nM, so give the number only.

Sample records with 12-HEPE:
• Cc1ccc(-c2cc(C(F)(F)F)nn2-c2ccc(S(N)(=O)=O)cc2)cc1 [celecoxib, reference compound] = 2.9
• Oc1ccc(/C=C/c2cc(O)cc(O)c2)cc1 = 2.1
• O=c1c(-c2ccc(O)cc2)coc2cc(O)cc(O)c12 = 2.2

Moving on to the next compound.
Query :: So what 12-HEPE did Oc1ccc(/C=C/c2cc(O)cc3c2[C@@H](c2cc(O)cc(O)c2)[C@H](c2ccc(O)cc2)O3)cc1 get with arachidonic acid (AA) cascade?
Result :: 5.0

----------
- System: arachidonic acid (AA) cascade
- Assay Name: kidney tissue oxylipin/PG levels in LPS induced sepsis in mice
- Condition Set: kidney tissue 24 h after LPS treatment, LPS +, mean
Marks after values point to notes of the source that are not given here.
Quantity Kind: 14(15)-EpETrE

Sample records with 14(15)-EpETrE:
* O=c1cc(-c2ccc(O)cc2)oc2cc(O)cc(O)c12 | 60^† nM
* O=c1c(-c2ccc(O)cc2)coc2cc(O)cc(O)c12 | 57^* nM

Moving on to the next compound.
Query :: Suppose we examine the compound Cc1ccc(-c2cc(C(F)(F)F)nn2-c2ccc(S(N)(=O)=O)cc2)cc1 [celecoxib, reference compound] ; what 14(15)-EpETrE value has been reported?
Result :: 57^† nM

----------
- System: arachidonic acid (AA) cascade
- Assay Name: kidney tissue oxylipin/PG levels in LPS induced sepsis in mice
- Condition Set: kidney tissue 24 h after LPS treatment, LPS +, mean
Marks after values point to notes of the source that are not given here.
Quantity Kind: 15-HETE

• O=c1c(-c2ccc(O)cc2)coc2cc(O)cc(O)c12 = 31^* nM
• Oc1ccc(/C=C/c2cc(O)cc3c2[C@@H](c2cc(O)cc(O)c2)[C@H](c2ccc(O)cc2)O3)cc1 = 30^* nM

Query :: Suppose we examine the compound Oc1ccc(/C=C/c2cc(O)cc(O)c2)cc1 ; what 15-HETE value has been reported?
Result :: 38^‡ nM

----------
Measured 5(6)-EpETrE by item
- Test system: arachidonic acid (AA) cascade
- Assay Name: kidney tissue oxylipin/PG levels in LPS induced sepsis in mice
- Condition Set: kidney tissue 24 h after LPS treatment, LPS +, mean
Marks after values point to notes of the source that are not given here.

Sample records with 5(6)-EpETrE:
* Cc1ccc(-c2cc(C(F)(F)F)nn2-c2ccc(S(N)(=O)=O)cc2)cc1 [celecoxib, reference compound] | 130^† nM
* O=c1c(-c2ccc(O)cc2)coc2cc(O)cc(O)c12 | 140^† nM

Query :: Suppose we examine the molecule O=c1cc(-c2ccc(O)cc2)oc2cc(O)cc(O)c12 ; what 5(6)-EpETrE value has been reported?
Result :: 130^* nM

----------
- System: arachidonic acid (AA) cascade
- Assay Name: kidney tissue oxylipin/PG levels in LPS induced sepsis in mice
- Condition Set: kidney tissue 24 h after LPS treatment, LPS +, mean
Marks after values point to notes of the source that are not given here.
Quantity Kind: 8(9)-EpETrE

Sample records with 8(9)-EpETrE:
* Cc1ccc(-c2cc(C(F)(F)F)nn2-c2ccc(S(N)(=O)=O)cc2)cc1 [celecoxib, reference compound] | 30^† nM
* O=c1cc(-c2ccc(O)cc2)oc2cc(O)cc(O)c12 | 32^† nM

Moving on to the next compound.
Query :: So what 8(9)-EpETrE did O=c1c(-c2ccc(O)cc2)coc2cc(O)cc(O)c12 get with arachidonic acid (AA) cascade?
Result :: 34^‡ nM

----------
- Tested on: arachidonic acid (AA) cascade
- Assay Name: kidney tissue oxylipin/PG levels in LPS induced sepsis in mice;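 note: male C57BL/6N mice challenged with LPS, kidney taken 24 h later, oxylipins quantified by LC-MS after solid-phase extraction of tissue homogenate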
- Condition Set: kidney tissue 24 h after LPS treatment, LPS +, mean
Marks after values point to notes of the source that are not given here.
Quantity Kind: TXB2

Sample records with TXB2:
* Oc1ccc(/C=C/c2cc(O)cc3c2[C@@H](c2cc(O)cc(O)c2)[C@H](c2ccc(O)cc2)O3)cc1 | 4.9^‡ nM
* O=c1c(-c2ccc(O)cc2)coc2cc(O)cc(O)c12 | 3.2^* nM

Moving on to the next compound.
Query :: Suppose we examine the compound Oc1ccc(/C=C/c2cc(O)cc(O)c2)cc1 ; what TXB2 value has been reported?
Result :: 3.8^† nM
